# Tested on: Staphylococcus aureus ATCC29213
# EXPERIMENTAL_DETAILS: Bacterial growth minimal inhibitory concentration (microdilution, CLSI M7-A7)
# Type: cell-based
# EXPERIMENTAL_CONDITIONS: Staphylococcus aureus, ATCC29213; methicillin-sensitive and quinolone-sensitive strain; cation-adjusted Mueller-Hinton Broth; read-out: MIC for S. aureus ATCC29213
Simple rule here: MIC less than 0.1 µg/mL is Criterion met, otherwise Criterion not met.

Lab note: MIC threshold 0.1 µg/mL. Does this compound come in strictly under it? O=C(Cn1c(=O)ccc2ccc(F)cc21)NCCC1OC(=O)c2cc(-c3cc(F)cc(F)c3)ccc21 (racemic)
Criterion not met

Please answer likewise for O=C(Cn1c(=O)ccc2ccc(F)cc21)NCCC1OC(=O)c2cc(C3=CCCC3)ccc21 (racemic)
Criterion not met

Please answer likewise for O=C(CC1OC(=O)c2cc(-c3cc(F)ccc3F)ccc21)NCCn1c(=O)ccc2ccc(F)cc21 (racemic)
Criterion met

Please answer likewise for O=C1OC(CCNCCn2c(=O)ccc3ccc(F)cc32)c2ccc(-c3ccccc3)cc21 (racemic)
Criterion met

Please answer likewise for O=C(CC1OC(=O)c2cc(-c3cc(F)cc(F)c3)ccc21)NCCn1c(=O)ccc2ccc(F)cc21 (racemic)
Criterion met

Please answer likewise for O=C(Cn1c(=O)ccc2ccc(F)cc21)NCCC1OC(=O)c2cc(-c3ccccc3)ccc21 (racemic)
Criterion not met

Please answer likewise for O=C1OC(C(=O)NCCCn2c(=O)ccc3ccc(F)cc32)c2ccc(C3=CCCCC3)cc21 (racemic)
Criterion not met

Please answer likewise for O=C1OC(CCNCCn2c(=O)ccc3ccc(F)cc32)c2ccc(-c3ccc(F)cc3F)cc21 (racemic)
Criterion not met

Please answer likewise for O=C(CC1OC(=O)c2cc(-c3ccc(F)c(F)c3)ccc21)NCCn1c(=O)ccc2ccc(F)cc21 (racemic)
Criterion not met

Please answer likewise for O=C(Cn1c(=O)ccc2ccc(F)cc21)NCCC1OC(=O)c2cc(C3=CCCCC3)ccc21 (racemic)
Criterion met

Further cases:
Lab note: MIC threshold 0.1 µg/mL. Does this compound come in strictly under it? O=C(Cn1c(=O)ccc2ccc(F)cc21)NCCC1OC(=O)c2cc(-c3cc(F)ccc3F)ccc21 (racemic)
Criterion met

Please answer likewise for O=C(CC1OC(=O)c2cc(-c3ccccc3F)ccc21)NCCn1c(=O)ccc2ccc(F)cc21 (racemic)
Criterion met

Please answer likewise for O=C(CC1OC(=O)c2cc(C3=CCCCC3)ccc21)NCCn1c(=O)ccc2ccc(F)cc21 (racemic)
Criterion met

Please answer likewise for O=C(CC1OC(=O)c2cc(C3=CCCC3)ccc21)NCCn1c(=O)ccc2ccc(F)cc21 (racemic)
Criterion met

Please answer likewise for O=C(CC1OC(=O)c2cc(-c3ccccc3)ccc21)NCCn1c(=O)ccc2ccc(F)cc21 (racemic)
Criterion not met
